assay.overview: in vitro
applied.conditions: cattle (Bos taurus)
assay.metric: CC50 (µM)
Note: unit µM is implicit; provide only the numeric part.

Use these answered entries as a reference point.
S=C(NCCc1c[nH]c2ccccc12)Nc1ccccc1Cl [Compound 13] : 49
S=C(NCCc1c[nH]c2ccccc12)Nc1ccc(Cl)c(Cl)c1 [Compound 6] : 27
O=C(NC(=S)NCCc1c[nH]c2ccccc12)c1ccccc1 [Compound 5] : 67

Shifting focus to the compound that follows.
Query: # return recorded CC50 for input S=C(NCCc1c[nH]c2ccccc12)Nc1cccc(Br)c1 [Compound 7]
Result: 55

----------
Test system: HIV-1 N119 (Y181C mutant)
assay.overview: microbe, parasite or virus in culture
Assay type: cell-based, Human Immunodeficiency Virus type-1
applied.conditions: read-out: EC50 N119
assay.metric: EC50 (nM)
Note: unit nM is implicit; provide only the numeric part.

Query: State EC50 (HIV-1 N119 (Y181C mutant)) of `Cc1cn([C@H]2C[C@H](N=[N+]=[N-])[C@@H](CO)O2)c(=O)[nH]c1=O` .
Result: 25

----------
Test system: HIV-1 A17 (K103N + Y181C mutant)
assay.overview: microbe, parasite or virus in culture
Format: cell-based, Human Immunodeficiency Virus type-1
applied.conditions: read-out: EC50 A17
assay.metric: pEC50
pEC50 is defined as minus the log10 of a concentration measured in mol/L.

Query: # return recorded pEC50 for input Cc1cn([C@H]2C[C@H](N=[N+]=[N-])[C@@H](CO)O2)c(=O)[nH]c1=O [AZT]
Result: 8.00

----------
Test system: Sb-1
assay.overview: microbe, parasite or virus in culture
Type: cell-based, poliovirus type-1
applied.conditions: Enterovirus C, Vero 76, read-out: Sb-1 EC50
assay.metric: EC50

Cc1ccc(Cl)cc1NC(=S)NCCc1c[nH]c2ccccc12 [Compound 26] : > 17 µM
Cc1ccc(NC(=S)NCCc2c[nH]c3ccccc23)cc1Cl [Compound 23] : > 17 µM
S=C(NCCc1c[nH]c2ccccc12)Nc1cccc(Br)c1 [Compound 7] : > 12 µM
S=C(NCCc1c[nH]c2ccccc12)Nc1ccc(Cl)cc1 [Compound 4] : > 55 µM
S=C(NCCc1c[nH]c2ccccc12)Nc1ccccc1 [Compound 1] : > 64 µM

Query: # return recorded EC50 for input C[C@@]1(O)[C@H](O)[C@@H](CO)O[C@H]1n1ccc(N)nc1=O [2′-C-methyl-cytidine, 2′-C-methylcytidine, reference compound]
Result: 7.3 µM

Query: # return recorded EC50 for input Fc1cccc(NC(=S)NCCc2c[nH]c3ccccc23)c1 [Compound 12]
Result: > 60 µM

Query: # return recorded EC50 for input CCCCc1ccc(NC(=S)NCCc2c[nH]c3ccccc23)c(C)c1 [Compound 27]
Result: > 12 µM

----------
Tested on: S. aureus ATCC 25923
assay.metric: MIC (µg/mL)
Note: unit µg/mL is implicit; provide only the numeric part.

Query: State MIC (S. aureus ATCC 25923) of `S=C(NCCc1c[nH]c2ccccc12)Nc1cccc(Cl)c1` .
Result: 50

Query: State MIC (S. aureus ATCC 25923) of O=C(O)c1cn(C2CC2)c2cc(N3CCNCC3)c(F)cc2c1=O [Ciprofloxacin, reference compound] .
Result: 0.5

Query: State MIC (S. aureus ATCC 25923) of `S=C(NCCc1c[nH]c2ccccc12)Nc1ccccc1Br` .
Result: 100

Query: State MIC (S. aureus ATCC 25923) of `S=C(NCCc1c[nH]c2ccccc12)Nc1ccc(Cl)c(Cl)c1` .
Result: 6.25

Query: State MIC (S. aureus ATCC 25923) of `C=C(C)CNC(=S)NCCc1c[nH]c2ccccc12` .
Result: 400

Data origin, for the record: paper PMC6222422
